- test-target: N-type calcium channels (Homo sapiens)
- Sequence (Q00975 whole entry): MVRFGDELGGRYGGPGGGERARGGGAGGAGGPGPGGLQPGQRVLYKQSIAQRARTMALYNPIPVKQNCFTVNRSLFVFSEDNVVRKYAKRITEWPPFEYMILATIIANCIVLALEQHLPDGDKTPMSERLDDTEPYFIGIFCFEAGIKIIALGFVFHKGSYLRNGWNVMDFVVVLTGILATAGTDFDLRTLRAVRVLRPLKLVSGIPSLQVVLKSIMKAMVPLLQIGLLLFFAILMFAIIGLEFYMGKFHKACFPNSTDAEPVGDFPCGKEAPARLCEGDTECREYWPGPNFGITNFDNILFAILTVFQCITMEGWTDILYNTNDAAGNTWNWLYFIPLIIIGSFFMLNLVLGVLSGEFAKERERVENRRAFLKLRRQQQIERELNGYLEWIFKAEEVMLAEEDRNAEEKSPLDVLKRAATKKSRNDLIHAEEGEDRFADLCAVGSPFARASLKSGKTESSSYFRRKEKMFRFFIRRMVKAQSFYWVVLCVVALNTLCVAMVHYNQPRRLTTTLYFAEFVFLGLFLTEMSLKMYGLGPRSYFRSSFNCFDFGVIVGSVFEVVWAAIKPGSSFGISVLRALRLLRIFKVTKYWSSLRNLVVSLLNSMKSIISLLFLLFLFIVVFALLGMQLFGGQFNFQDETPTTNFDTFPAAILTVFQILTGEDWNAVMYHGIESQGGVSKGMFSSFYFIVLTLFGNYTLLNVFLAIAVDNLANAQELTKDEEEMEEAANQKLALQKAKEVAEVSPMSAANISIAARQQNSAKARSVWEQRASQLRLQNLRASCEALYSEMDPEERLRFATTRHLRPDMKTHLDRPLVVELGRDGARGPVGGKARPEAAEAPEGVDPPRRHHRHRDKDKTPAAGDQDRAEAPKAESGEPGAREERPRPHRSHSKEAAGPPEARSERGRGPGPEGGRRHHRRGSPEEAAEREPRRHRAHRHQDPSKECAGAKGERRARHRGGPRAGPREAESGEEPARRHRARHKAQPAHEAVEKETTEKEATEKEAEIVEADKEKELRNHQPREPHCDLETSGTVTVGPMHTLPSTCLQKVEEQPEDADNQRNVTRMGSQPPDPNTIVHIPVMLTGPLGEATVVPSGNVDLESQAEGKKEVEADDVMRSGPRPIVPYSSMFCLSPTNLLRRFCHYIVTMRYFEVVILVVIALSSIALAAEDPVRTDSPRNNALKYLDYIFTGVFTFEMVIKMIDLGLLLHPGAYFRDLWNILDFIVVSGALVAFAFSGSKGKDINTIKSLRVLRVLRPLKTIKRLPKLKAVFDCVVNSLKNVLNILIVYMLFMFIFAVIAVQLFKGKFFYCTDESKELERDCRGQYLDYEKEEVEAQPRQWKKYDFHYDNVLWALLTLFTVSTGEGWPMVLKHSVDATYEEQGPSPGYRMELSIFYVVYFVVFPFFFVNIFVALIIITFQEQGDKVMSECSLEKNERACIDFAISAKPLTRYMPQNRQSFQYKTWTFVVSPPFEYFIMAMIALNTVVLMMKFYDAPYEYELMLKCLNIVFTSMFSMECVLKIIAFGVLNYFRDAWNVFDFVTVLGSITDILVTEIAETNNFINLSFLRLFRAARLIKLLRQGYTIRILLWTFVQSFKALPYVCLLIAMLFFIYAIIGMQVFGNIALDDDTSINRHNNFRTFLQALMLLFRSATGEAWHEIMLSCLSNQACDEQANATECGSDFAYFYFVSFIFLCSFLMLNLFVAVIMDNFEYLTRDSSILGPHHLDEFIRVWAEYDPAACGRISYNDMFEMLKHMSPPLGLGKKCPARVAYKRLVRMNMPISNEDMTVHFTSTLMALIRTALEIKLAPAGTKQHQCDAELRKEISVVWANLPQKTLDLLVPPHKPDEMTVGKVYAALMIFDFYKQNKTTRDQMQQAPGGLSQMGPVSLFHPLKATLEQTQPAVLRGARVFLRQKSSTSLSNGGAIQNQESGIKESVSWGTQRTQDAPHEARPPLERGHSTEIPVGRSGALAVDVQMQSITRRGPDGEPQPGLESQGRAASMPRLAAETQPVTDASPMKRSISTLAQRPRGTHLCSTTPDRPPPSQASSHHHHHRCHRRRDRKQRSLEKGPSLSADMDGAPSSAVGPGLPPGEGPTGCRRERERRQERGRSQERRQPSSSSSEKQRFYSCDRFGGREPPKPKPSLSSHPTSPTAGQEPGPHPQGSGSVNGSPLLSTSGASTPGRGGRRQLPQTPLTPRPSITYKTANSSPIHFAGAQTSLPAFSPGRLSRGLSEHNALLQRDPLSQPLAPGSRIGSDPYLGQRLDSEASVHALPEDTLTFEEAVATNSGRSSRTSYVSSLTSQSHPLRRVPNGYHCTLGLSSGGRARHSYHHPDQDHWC
- Sequence (Q02641 whole entry partner): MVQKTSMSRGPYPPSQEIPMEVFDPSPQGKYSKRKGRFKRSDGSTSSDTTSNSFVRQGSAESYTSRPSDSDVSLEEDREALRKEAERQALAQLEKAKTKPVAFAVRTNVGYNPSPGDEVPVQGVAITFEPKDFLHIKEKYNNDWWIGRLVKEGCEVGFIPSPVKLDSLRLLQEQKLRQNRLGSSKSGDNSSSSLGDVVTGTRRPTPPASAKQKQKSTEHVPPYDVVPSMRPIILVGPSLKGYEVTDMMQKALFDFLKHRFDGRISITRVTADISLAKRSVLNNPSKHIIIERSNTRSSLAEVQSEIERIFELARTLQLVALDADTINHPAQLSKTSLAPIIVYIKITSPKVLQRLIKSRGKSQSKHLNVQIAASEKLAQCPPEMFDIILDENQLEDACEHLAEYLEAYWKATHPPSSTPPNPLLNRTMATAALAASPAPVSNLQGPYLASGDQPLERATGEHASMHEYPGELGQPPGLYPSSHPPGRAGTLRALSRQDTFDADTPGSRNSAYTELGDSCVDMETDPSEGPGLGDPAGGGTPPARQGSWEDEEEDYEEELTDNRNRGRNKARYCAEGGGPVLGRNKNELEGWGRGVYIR
- Sequence (P54289 25-956 partner limits assumed): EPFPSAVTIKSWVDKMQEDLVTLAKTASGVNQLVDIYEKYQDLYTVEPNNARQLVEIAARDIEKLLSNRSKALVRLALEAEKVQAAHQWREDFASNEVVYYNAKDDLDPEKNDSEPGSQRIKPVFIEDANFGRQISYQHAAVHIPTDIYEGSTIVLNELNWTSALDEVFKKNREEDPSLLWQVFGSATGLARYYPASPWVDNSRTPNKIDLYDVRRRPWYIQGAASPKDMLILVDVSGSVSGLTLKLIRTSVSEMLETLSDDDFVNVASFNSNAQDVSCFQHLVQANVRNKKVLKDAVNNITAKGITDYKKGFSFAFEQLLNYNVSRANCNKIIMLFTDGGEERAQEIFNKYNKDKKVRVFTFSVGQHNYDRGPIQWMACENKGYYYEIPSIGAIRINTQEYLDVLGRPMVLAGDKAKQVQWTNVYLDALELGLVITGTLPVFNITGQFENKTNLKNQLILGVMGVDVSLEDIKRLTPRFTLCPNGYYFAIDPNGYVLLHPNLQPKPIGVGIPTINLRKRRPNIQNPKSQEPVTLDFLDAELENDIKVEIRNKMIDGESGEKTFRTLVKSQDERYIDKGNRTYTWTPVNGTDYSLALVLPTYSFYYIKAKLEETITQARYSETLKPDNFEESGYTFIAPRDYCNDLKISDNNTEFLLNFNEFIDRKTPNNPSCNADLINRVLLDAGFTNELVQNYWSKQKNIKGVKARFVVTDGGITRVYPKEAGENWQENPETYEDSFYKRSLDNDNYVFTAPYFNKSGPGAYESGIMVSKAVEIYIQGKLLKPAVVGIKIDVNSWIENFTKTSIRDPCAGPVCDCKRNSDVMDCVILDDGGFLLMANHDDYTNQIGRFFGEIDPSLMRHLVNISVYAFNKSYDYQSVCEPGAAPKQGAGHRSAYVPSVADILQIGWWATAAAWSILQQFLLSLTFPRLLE
- Sequence (P54289 957-1103 partner limits assumed): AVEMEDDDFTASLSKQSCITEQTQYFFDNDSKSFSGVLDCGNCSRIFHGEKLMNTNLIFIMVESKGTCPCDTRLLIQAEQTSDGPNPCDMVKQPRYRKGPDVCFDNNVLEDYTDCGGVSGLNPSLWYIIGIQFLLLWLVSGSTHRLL
- experiment-description: N-type calcium channel influx assay (fluorescence)
- Type: cell-based
pIC50: −log10 of the molar value. Counter-ions that a name gives are not always drawn.
metric-name: pIC50

molecule | quantitative-readout
COc1cc(CCN(CC(=O)N(C)C)Cc2ccccc2)ccc1OCc1cccc(F)c1 [Example 20, hydrochloride] | 5.96

---

Entries and their pIC50 values follow.
- Test system: sodium currents of cortical neurons
- experiment-description: Inhibition of sodium currents in cortical neurons (whole cell patch clamp)
- Format: cell-based
- experimental-setup: embryonic Wistar rat cortical neurons, preconditioning −50 mV (half maximal steady-state condition); read-out: IC50 (Vhalf)
pIC50: −log10 of the molar value.
metric-name: pIC50

compound | metric-name | quantitative-readout
C[C@H](NCc1ccc(OCc2ccccc2F)cc1)C(N)=O [ralfinamide, reference compound] | pIC50 | 5.05
CCCCOc1cccc(CCN(CC(=O)N(C)C)CC2CCOC2)c1.Cl (racemic) [Example 96, hydrochloride] | pIC50 | 6.30
